Entries and their measured MIC follow.
system: Streptococcus pneumoniae; assay: Antibacterial activity against Streptococcus pneumoniae ATCC 49619; format: functional

// below: answered molecules
CC1(C)S[C@@H]2[C@H](n3cc(-c4ccccc4-c4ccccc4)nn3)C(=O)N2[C@H]1C(=O)O ... > 8 µg/mL
CC1(C)S[C@@H]2[C@H](n3cc(C(O)c4ccccc4)nn3)C(=O)N2[C@H]1C(=O)O (stereo partly drawn) ... > 8 µg/mL
CC1(C)S[C@@H]2[C@H](n3cc(-c4ccc(-c5ccncc5)cc4)nn3)C(=O)N2[C@H]1C(=O)O ... > 8 µg/mL
CC1(C)S[C@@H]2[C@H](n3cc(-c4cccc(-c5ccccc5)c4)nn3)C(=O)N2[C@H]1C(=O)O ... > 8 µg/mL
CC1(C)S[C@@H]2[C@H](n3cc(-c4ccncc4)nn3)C(=O)N2[C@H]1C(=O)O ... > 8 µg/mL

[in] Specify MIC for CC1(C)S[C@@H]2[C@H](n3cc(-c4ccc(-c5ccccc5)cc4)nn3)C(=O)N2[C@H]1C(=O)O and stop.
[out] ≥ 8 µg/mL

[in] Specify MIC for CC1(C)S[C@@H]2[C@H](n3cc(-c4ccccc4)nn3)C(=O)N2[C@H]1C(=O)O and stop.
[out] 4 µg/mL

[in] Specify MIC for CC1(C)S[C@@H]2[C@H](n3cc(Cc4ccccc4)nn3)C(=O)N2[C@H]1C(=O)O and stop.
[out] 4 µg/mL
